# target-desc: Solute carrier family 2, facilitated glucose transporter member 1 (Homo sapiens)
# assay: ST_JUDE_LEISH: Cytotoxicity at 2uM final concentration against transgenic Leishmania Mexicana promastigotes LmGLUT1 that are glucose transport deficient and complemented with the human glucose transporter GLUT1. Activity is measured by DNA content using SYBR green in vitro
# Format: functional
# reported inhibition; entries follow
Report only the number, with the unit % understood.

See these solved cases before continuing.
compound	readout-type	result
Cc1cccc2nc(-c3cccc(-c4cccc(NC(=O)c5cn(C)c(=O)n5C)c4)c3)[nH]c12	inhibition	1.98
COc1ccc2[nH]ccc(=NN=Cc3cccc(Cl)c3)c2c1	inhibition	15.1
CCCNC(=O)Nc1ccc(N(C)c2ccnc(NC3CC3)n2)cc1	inhibition	7
O=C1C[C@@H]([S+]([O-])Cc2nccs2)N1CCOCCCCCCc1ccc(Cl)cc1 (stereo partly drawn)	inhibition	9.09
COc1ccc2nccc([C@@H](O)CN3CCC(NCc4nc5ccc(F)cc5[nH]4)CC3)c2c1	inhibition	2.34

Identify measured inhibition associated with Cc1ccccc1/N=C1\NC(=S)N(c2cccc(C(F)(F)F)c2)C12CCC(C(C)(C)C)CC2 (stereo not drawn)
2.78

Please report inhibition for the following compound: "CCOc1cc(C(=O)Nc2ccc(-c3nc4ccccc4[nH]3)cc2)cc(OCC)c1OCC"
7.99

Report measured inhibition; entry is "CN1CCN(c2ccnc3ccc(NC(=O)Nc4cccc5c(Br)cccc45)cc23)CC1"
0.91

Item Cc1ccccc1C1CCN(C2CCC(NC(=O)/C=C/c3cc(F)ccc3F)CC2)CC1 (stereo not drawn) : provide inhibition
1.51

For O=C1C(C2CCC(c3ccc(Cl)cc3)CC2)=C2OCC3COC2(O3)c2ccccc21 (stereo not drawn) , write its inhibition.
1.13
